Known residual activity of a selection of compounds
tgt: SLK (human)
experiment.notes: radiometric filter-binding kinase assay, Kinase HotSpot
test.parameters: compound 0.5 µM; ATP 10 µM
property.measured: residual activity (%)

* Nc1nnc2[nH]c3ccccc3nc1-2 | 92.5
* Cn1sc(=O)n(Cc2ccccc2)c1=O | 84.7
* O=C1Nc2ccccc2/C1=C1/Nc2ccccc2/C1=N\OCCC(O)CO (stereo not drawn) | 59.9
* O=C1NC(=O)C(c2c[nH]c3ccccc23)=C1c1c[nH]c2ccccc12 | 45.4
* CC(C)c1nn(-c2c(Cl)cccc2Cl)c2nc(Cc3ccc(OCCO)cc3)nc(O)c12 | 86.9
* CN(C)C[C@H]1CCn2c(c(C3=C(c4cn(C)c5ccccc45)C(=O)NC3=O)c3ccccc32)C1 | 83.1
* COc1ccc(OC)c2c(=S)c3ccccc3[nH]c12 | 80.2
* Cn1cnc2cc3c(Nc4cccc(Br)c4)ncnc3cc21 | 67.8
* O=C1Nc2ccccc2/C1=C1\Nc2ccccc2\C1=N/O | 78.7
* O=C1NC(=O)/C(=C\c2ccc3nccnc3c2)S1 | 96.3
* O=C(Nc1cccc(Nc2cc(Nc3cccc(C(F)(F)F)c3)ncn2)c1)C1CC1 | 102
* CN([C@@H](Cc1ccc(OS(=O)(=O)c2cccc3cnccc23)cc1)C(=O)N1CCN(c2ccccc2)CC1)S(=O)(=O)c1cccc2cnccc12 | 101
* O=C1NC(=O)C(c2cn(CCCO)c3ncccc23)=C1c1cnccn1 | 106
* O=C(CCCc1ccc(-c2ccccc2F)cc1)Nc1ccc(O)cc1 | 102
* CCN(CC)CCCCN1c2ccccc2Oc2ccc(Cl)cc21 | 105
* COc1cc2ncc(-c3ccccc3)nc2cc1OC | 97.3
* CCn1cnc2c(Nc3cccc(Cl)c3)nc(N[C@@H]3CCCC[C@@H]3N)nc21 | 71.4
* CC(=O)O/N=C1\C(=C2\C(=O)Nc3cc(Br)ccc32)Nc2ccccc21 | 80.2
* COc1ccc(CNC(=O)Nc2ncc([N+](=O)[O-])s2)cc1 | 88.9
* O=C1Cc2c([nH]c3ccc(Br)cc23)-c2ccccc2N1 | 95.7
* Nc1nccc(-c2c(-c3ccc(F)cc3)ncn2C2CCNCC2)n1 | 99.9
* COc1cc2ncnc(N3CCN(C(=O)Nc4ccc(Oc5ccccc5)cc4)CC3)c2cc1OC | 97.9
* Oc1ccc(Nc2nc(-c3ccc(Cl)cc3)cs2)cc1 | 110

Numbers sourced from the kinase profiling compilation of Christmann-Franck et al. (2016).
